Data provenance is patent US20230126310A1.

System: SARS-CoV-2
Conditions: 10 µM
readout.kind: % Inh. (% Inhibition of SARS-CoV-2)
Be sure to follow the number with its unit.

The following molecules have reported results that may help.
- COc1ccc(C[C@H]2NC[C@H](O)[C@H]2OC(C)=O)cc1: 88.1%
- Cc1cccc2c1CC[C@H](CN1CCC(c3c(Cl)cccc3Cl)CC1)C[C@@H]2O: 146.6%
- CC(C)(C)c1ccc(NC(=O)N2CCN(c3ncccc3Cl)CC2)cc1: 86.4%

Query string: Given CCC(=O)N1CCN(c2ccc(-n3c(=O)ccc4cnc5ccc(-c6cnc7ccccc7c6)cc5c43)cc2C(F)(F)F)CC1 , state its recorded % Inh. (% Inhibition of SARS-CoV-2).
Result string: 75.3%

Query string: Check COc1cc(/C=C2\CCCN([C@@H](C)c3ccc(F)cc3)C2=O)ccc1-n1cnc(C)c1 too.
Result string: 100.8%

Query string: Same question for Cc1ccc(CC2(O)CCN(CCOc3ccc(O)cc3)CC2)cc1 please.
Result string: 60.2%

Query string: Another molecule to check: Nc1nccc(Oc2ccc(NC(=O)c3c[nH]cc(-c4ccc(F)cc4)c3=O)cc2F)c1Cl
Result string: 98.3%

Query string: Follow-up item: CC(C)(NS(=O)(=O)c1ccc(Oc2ccc(F)cc2)cc1)C(=O)NO
Result string: 86.9%
